system: complementary DNA target sequence; test: UV-melting temperature of complexes of acceptor probes with complementary DNA target sequence; assay type: physicochemical; details: versus unsubstituted acceptor probe; 2 μM oligonucleotides, pH 7.4
In the oligonucleotide strings, read from the 5' end, every base follows the letter of its sugar. An asterisk marks phosphorothioate; unmarked linkages are phosphodiester. Other units and linkages are bracketed, terminal groups are in braces. A string of capitals states the bases alone. [OXT] = OXT-substituted phosphotriester internucleotide linkage; d = 2'-deoxy (DNA)

substance	target_entity	ΔTm (PDE - PTE) / °C
Double OXT12: TACTATGGTCCACACAACTATTG(OXT)C (OXT)T (DNA dTdAdCdTdAdTdGdGdTdCdCdAdCdAdCdAdAdCdTdAdTdTdG[OXT]dC[OXT]dT)	complementary DNA target sequence	−2.6
Single OXT1: TACTATGGTCCACACAACTATTGC (OXT)T (DNA dTdAdCdTdAdTdGdGdTdCdCdAdCdAdCdAdAdCdTdAdTdTdGdC[OXT]dT)	complementary DNA target sequence	−1.4
Double OXT23: TACTATGGTCCACACAACTATT(OXT)G(OXT)C T (DNA dTdAdCdTdAdTdGdGdTdCdCdAdCdAdCdAdAdCdTdAdTdT[OXT]dG[OXT]dCdT)	complementary DNA target sequence	−3.5
Single OXT2: TACTATGGTCCACACAACTATTG(OXT)C T (DNA dTdAdCdTdAdTdGdGdTdCdCdAdCdAdCdAdAdCdTdAdTdTdG[OXT]dCdT)	complementary DNA target sequence	−2.3

----------
system: complementary DNA target sequence; assay: UV-melting temperature of complexes of acceptor probes with complementary DNA target sequence; type: physicochemical; conditions: 2 μM oligonucleotides, NaCl 137 mM, KCl 2.7 mM, phosphate buffer pH 7.4, 260 nm
In the oligonucleotide strings, read from the 5' end, every base follows the letter of its sugar. An asterisk marks phosphorothioate; unmarked linkages are phosphodiester. Other units and linkages are bracketed, terminal groups are in braces. A string of capitals states the bases alone. [OXT] = OXT-substituted phosphotriester internucleotide linkage; d = 2'-deoxy (DNA)

substance	Tm, °C
Double OXT23: TACTATGGTCCACACAACTATT(OXT)G(OXT)C T (DNA dTdAdCdTdAdTdGdGdTdCdCdAdCdAdCdAdAdCdTdAdTdT[OXT]dG[OXT]dCdT)	65.4
Double OXT12: TACTATGGTCCACACAACTATTG(OXT)C (OXT)T (DNA dTdAdCdTdAdTdGdGdTdCdCdAdCdAdCdAdAdCdTdAdTdTdG[OXT]dC[OXT]dT)	66.2
Unsubstituted: TACTATGGTCCACACAACTATTGCT (Table 7 acceptor probe) (DNA TACTATGGTCCACACAACTATTGCT; acceptor probe, label not given here) [reference compound]	68.9
Single OXT1: TACTATGGTCCACACAACTATTGC (OXT)T (DNA dTdAdCdTdAdTdGdGdTdCdCdAdCdAdCdAdAdCdTdAdTdTdGdC[OXT]dT)	67.5
Single OXT2: TACTATGGTCCACACAACTATTG(OXT)C T (DNA dTdAdCdTdAdTdGdGdTdCdCdAdCdAdCdAdAdCdTdAdTdTdG[OXT]dCdT)	66.6

Hello, the source for this data is patent US20140038181A1, in case you need it.
